System: NCI-H522 lung
Assay: NCI tumour cell line growth inhibition, 48 h
Catalogue of TGI readings, one per entry.

{"COMPOUND": "CC(=O)Oc1cc(C)ccc1[C@]1(C)CC[C@H](C)/C1=C\\Br", "RESULT_COMPARATOR": "=", "TGI (µM)": 22.7}
{"COMPOUND": "COC(=O)C(C)Sc1nc2cc(Cl)ccc2s1 (centres undefined)", "RESULT_COMPARATOR": ">", "TGI (µM)": 100}
{"COMPOUND": "COc1cc(-c2cc(=O)c3cc4c(cc3[nH]2)OCO4)cc(OC)c1OC", "RESULT_COMPARATOR": ">", "TGI (µM)": 100}
{"COMPOUND": "CCCCCCC/C=C/[C@H]1O[C@]23C(=O)C[C@@]4(C[C@@H](OC5OC(CO)C(O)C(O)C5O)C[C@@H]4[C@H]2C=C1C)OC3=O (some centres undefined)", "RESULT_COMPARATOR": "=", "TGI (µM)": 8.64}
{"COMPOUND": "Oc1ccc(Br)cc1Sc1cc(Br)ccc1O", "RESULT_COMPARATOR": "=", "TGI (µM)": 8.46}
{"COMPOUND": "COc1ccc(/C=C/c2cc(OC)c(OC)c(OC)c2)cc1NC(=O)/C=C/c1ccc(F)cc1", "RESULT_COMPARATOR": "=", "TGI (µM)": 5.73}
{"COMPOUND": "O=C(O)c1ccccc1/C=N\\NC1=NCCCCN1", "RESULT_COMPARATOR": ">", "TGI (µM)": 100}
{"COMPOUND": "Cc1cc(/C=C2\\SC(=Nc3ccccc3)N(C3CCCC3)C2=O)c(C)n1-c1ccc(Cl)cc1", "RESULT_COMPARATOR": ">", "TGI (µM)": 100}
{"COMPOUND": "O=C1c2cc(Br)ccc2-c2c1c1ccc([N+](=O)[O-])cc1c(=O)n2CCCCl", "RESULT_COMPARATOR": "=", "TGI (µM)": 5.38}
{"COMPOUND": "Cc1ccc(C(=O)c2oc3ccc4c(C)cc(=O)oc4c3c2C)cc1", "RESULT_COMPARATOR": "=", "TGI (µM)": 55.2}
{"COMPOUND": "CSCCC(NC(=O)OC(C)(C)C)C(=O)NCCNc1ccc(NCCNC(=O)C(CCSC)NC(=O)OC(C)(C)C)c2c1C(=O)c1ccccc1C2=O (centres undefined)", "RESULT_COMPARATOR": "=", "TGI (µM)": 3.38}
{"COMPOUND": "CC(=O)O[C@H]1C(N(C)C(=O)c2ccccc2)CC[C@]2(C)C3CC[C@@]4(C)C(CC(O)[C@@H]4C(C)N(C)C)[C@@H]3CCC12 (some centres undefined)", "RESULT_COMPARATOR": ">", "TGI (µM)": 100}
{"COMPOUND": "Cc1[nH]c(-c2ccccc2)c(-c2ccc(Cl)cc2)c1C(=O)ONC(=O)c1ccccc1", "RESULT_COMPARATOR": "=", "TGI (µM)": 5.42}
{"COMPOUND": "CCOC(=O)c1sc2c(c1OC(=O)c1ccccc1)c(=O)n(-c1ccccc1)c(=S)n2-c1ccccc1", "RESULT_COMPARATOR": "=", "TGI (µM)": 56.3}
{"COMPOUND": "Nc1ccc(C(=O)N/C(=C\\C=C\\c2ccco2)c2nc3[nH]c(=S)[nH]c(=O)c3[nH]2)cc1", "RESULT_COMPARATOR": ">", "TGI (µM)": 100}
{"COMPOUND": "Cc1ccc(O)c(C2=NNC(c3cccc(Br)c3)C2)c1 (centres undefined)", "RESULT_COMPARATOR": ">", "TGI (µM)": 100}
{"COMPOUND": "O=C(Nc1ccc(Cl)cc1)Nc1ccc(Cl)c(Cl)c1", "RESULT_COMPARATOR": ">", "TGI (µM)": 100}
{"COMPOUND": "CN1CCN(CCSC2Cc3cc(Cl)ccc3Sc3ccccc32)CC1 (centres undefined)", "RESULT_COMPARATOR": "=", "TGI (µM)": 12.8}
{"COMPOUND": "COc1cc(/C=C2/SC(c3ccccc3)N(c3cccc([N+](=O)[O-])c3)C2=O)cc(OC)c1OC (centres undefined)", "RESULT_COMPARATOR": ">", "TGI (µM)": 100}

###

Test system: 786-0 renal
Test: NCI tumour cell line growth inhibition, 48 h; in the data active means GI50 below about 0.43 µM; inactive means the rest
Labels: label 1 (active), label 0 (inactive)

{"SMILES_RECORD": "COc1cc2c(cc1OCc1ccccc1)N=C[C@@H]1C/C(=C/C(=O)NCCCN3C(=O)c4cccc5cccc(c45)C3=O)CN1C2=O", "ASSIGNED_CATEGORY": "label 1"}
{"SMILES_RECORD": "O=C1c2cc(Br)ccc2-c2c1c1ccc([N+](=O)[O-])cc1c(=O)n2CCCCl", "ASSIGNED_CATEGORY": "label 0"}
{"SMILES_RECORD": "COc1cc(/C=C/c2cc(C(F)(F)F)[nH]c(=O)n2)ccc1OCc1ccccc1F", "ASSIGNED_CATEGORY": "label 0"}
{"SMILES_RECORD": "COC(=O)CCC/C=C\\C[C@H]1C=CC(=O)/C1=C/C[C@@H](O)CCc1cccc(C(F)(F)F)c1", "ASSIGNED_CATEGORY": "label 0"}

###

System: CAKI-1 renal
Experiment: NCI tumour cell line growth inhibition, 48 h
Catalogue of TGI readings, one per entry.

{"COMPOUND": "CC(=O)OCC1OC(n2c(-c3ccccc3)cc(-c3ccco3)c(C#N)c2=O)C(OC(C)=O)C(OC(C)=O)C1OC(C)=O (stereo unspecified)", "TGI": "> 100 µM"}
{"COMPOUND": "Nc1nc(-c2cccc([N+](=O)[O-])c2)c(Br)c(=O)[nH]1", "TGI": "> 100 µM"}
{"COMPOUND": "N#CC1=CNc2sccc2S1(=O)=O", "TGI": "> 100 µM"}
{"COMPOUND": "CSC(=NC1=NC(C(F)(F)F)(C(F)(F)F)N=C(c2ccccc2)O1)SC", "TGI": "44.8 µM"}
{"COMPOUND": "NC(=O)CC(Nc1ncc2c(n1)-c1ccccc1OC2)C(=O)O (stereo unspecified)", "TGI": "> 100 µM"}
{"COMPOUND": "COc1cc(OC)c(/C=C/c2ccc3ccccc3[n+]2C)c(OC)c1", "TGI": "> 49.2 µM"}
{"COMPOUND": "COc1ccc2c(c1)CCc1c-2n(CCN(C)C)c2ccc(OC)cc12", "TGI": "> 100 µM"}
{"COMPOUND": "CCCCN(c1ccccc1)c1ncnc2c1cnn2C", "TGI": "> 100 µM"}
{"COMPOUND": "CCOc1ccc(/C=C/C(=O)c2ccccc2)cc1", "TGI": "30.7 µM"}
{"COMPOUND": "CC[N+](C)(CC)CCN1C(=O)c2ccccc2S1(=O)=O", "TGI": "> 100 µM"}
{"COMPOUND": "C/C=C/[C@H]1O[C@@](OC)([C@@H](C)[C@H](O)[C@H](C)[C@H]2OC(=O)/C(OC)=C/C(C)=C/[C@@H](C)[C@@H](O)[C@@H](C)[C@@H](O)[C@H](C)C/C(C)=C/C=C/[C@@H]2OC)CC(OC2CC(O)C(OC(N)=O)C(C)O2)[C@@H]1C (stereo partly specified)", "TGI": "11.7 µM"}
{"COMPOUND": "CC(C)(C)N1Cc2ccccc2/C(=C/Sc2ccccc2)C1=O", "TGI": "30.7 µM"}
{"COMPOUND": "O=C(Nc1ccccc1)c1ccc(Cl)c([N+](=O)[O-])c1", "TGI": "40.4 µM"}
{"COMPOUND": "CC#CC(O)(C(=O)OC1CCCN(C)C1)C1=CC=CCC1 (stereo unspecified)", "TGI": "> 100 µM"}
{"COMPOUND": "Cc1ccc(O)c(C2=NNC(c3cccc(Br)c3)C2)c1 (stereo unspecified)", "TGI": "> 100 µM"}
{"COMPOUND": "Cc1c(CCCl)c(=O)n2c([nH]c3ccccc32)c1C#N", "TGI": "2.77 µM"}
{"COMPOUND": "Cc1ccc2c(c1)OC1Nc3ccccc3C1=C2O (stereo unspecified)", "TGI": "97.5 µM"}
{"COMPOUND": "COc1cc(/C=C2/SC(c3ccccc3)N(c3cccc([N+](=O)[O-])c3)C2=O)cc(OC)c1OC (stereo unspecified)", "TGI": "> 100 µM"}
{"COMPOUND": "CCOc1ccccc1NC(=O)/C=C1\\NC(=O)CS1", "TGI": "> 100 µM"}
{"COMPOUND": "O=C(O)C1CCc2ccc3ccccc3c2C1c1cccc2ccccc12 (stereo unspecified)", "TGI": "> 100 µM"}
{"COMPOUND": "CSc1ncc2c(n1)-c1ccccc1OC2N1CCCC1 (stereo unspecified)", "TGI": "83.4 µM"}
